# maps each entry to its IC50
biological target: Chk1 (Homo sapiens); construct: purchased Upstate Biotechnology; assay: Chk1 assay: incorporation of γ-33P ATP into immobilized myelin basic protein; assay type: biochemical; conditions: Table 11; inhibition given as IC50 class symbol

# annotated cases, reported IC50 shown
1. CC(C)(C)c1nnc(-c2nc(-c3cccc(CO)c3)cnc2N)[nH]1 [compound 569]	1 to 10 µM
2. N=C(NNc1ccccc1)c1nc(-c2cccc(C(=O)N[C@H]3CCc4ccccc43)c2)cnc1N [compound 720]	> 10 µM
3. CC(C)(C)OC(=O)N1CC[C@H](NC(=O)c2nc(-c3cccc(C(=O)NCc4ccc(Cl)cc4)c3)cnc2N)C1 [compound 756]	0.05 to 1 µM
4. CC(C)(C)OC(=O)N1CC[C@H](CNC(=O)c2nc(-c3cccc(C(=O)N[C@H]4CCc5ccccc54)c3)cnc2N)C1 [compound 784]	> 10 µM
5. Nc1ncc(-c2cccc(C(=O)N[C@H]3CCc4ccccc43)c2)nc1C(=O)N[C@H]1CCCNC1 [compound 764]	< 0.05 µM

Entry C[C@@H](NC(=O)c1cccc(-c2cnc(N)c(C(=O)N[C@H]3CCNC3)n2)c1)c1ccccc1 [compound 716] , IC50 reported as 1 to 10 µM

// IC50 value for Nc1ncc(-c2cccc(C(=O)NCc3cccnc3)c2)nc1C(=O)N[C@H]1CCNC1 [compound 762] : 0.05 to 1 µM

* * *

target: Chk1 (Homo sapiens, UniProt O14757); construct: purchased Upstate Biotechnology; test: Chk1 assay: incorporation of γ-33P ATP into immobilized myelin basic protein; type: biochemical; conditions: Table 11; Chk1 only
Sequence (O14757 whole entry): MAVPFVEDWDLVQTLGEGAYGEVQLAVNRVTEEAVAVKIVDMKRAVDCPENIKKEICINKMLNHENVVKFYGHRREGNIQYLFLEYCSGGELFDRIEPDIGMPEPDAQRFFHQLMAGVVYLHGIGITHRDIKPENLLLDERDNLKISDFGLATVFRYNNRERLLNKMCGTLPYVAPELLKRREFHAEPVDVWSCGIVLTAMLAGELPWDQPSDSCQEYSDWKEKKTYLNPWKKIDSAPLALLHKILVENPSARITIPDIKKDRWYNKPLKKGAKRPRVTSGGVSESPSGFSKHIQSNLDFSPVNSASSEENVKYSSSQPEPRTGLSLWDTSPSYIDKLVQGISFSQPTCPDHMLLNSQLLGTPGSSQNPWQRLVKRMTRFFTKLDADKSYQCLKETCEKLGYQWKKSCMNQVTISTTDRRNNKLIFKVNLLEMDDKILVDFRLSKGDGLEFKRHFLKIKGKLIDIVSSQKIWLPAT
Below, each entry is listed with its recorded IC50.

Example results:
1. NC(=O)c1nc(-c2ccc(-c3ccccc3)cc2)cnc1N [compound 31]	> 10 µM
2. NC(=O)c1nc(-c2cccc(OC(F)(F)F)c2)cnc1N [compound 28]	1 to 10 µM
3. CNC(=O)c1nc(-c2cccc(C)c2)cnc1N [compound 53]	0.05 to 1 µM
4. Nc1ncc(-c2ccccc2)nc1C(=O)NC1CC1 [compound 20]	> 10 µM
5. NC(=O)c1nc(-c2cccc3ccccc23)cnc1N [compound 26]	> 10 µM

Looking up NC(=O)c1nc(-c2cccc(O)c2)cnc1N [compound 36] , I found its IC50 recorded as 0.05 to 1 µM

// IC50 value for NC(=O)c1nc(-c2ccc3c(c2)OCO3)cnc1N [compound 25] : > 10 µM

Record summary for CNC(=O)c1nc(-c2noc(-c3cccnc3)n2)cnc1N [compound 66] : reported IC50 = > 10 µM

Form field IC50, entry NC(=O)c1nc(-c2cccc(OCc3ccccc3)c2)cnc1N [compound 35] : 0.05 to 1 µM

Sure, the documented IC50 for CCOc1cccc(-c2cnc(N)c(C(N)=O)n2)c1 [compound 24] is 1 to 10 µM

* * *

molecular target: Chk1 (Homo sapiens); construct: purchased Upstate Biotechnology; assay: Chk1 assay: incorporation of γ-33P ATP into immobilized myelin basic protein; assay type: biochemical; conditions: Table 11; Chk1 only
pIC50: −log10 of the molar value.
Let's look at some compounds and their measured pIC50.

The examples below pair each entry with its known result.
1) CCOc1ccc(-c2cnc(N)c(C(=O)NC)n2)cc1 [compound 52]	5.00 to 6.00
2) Nc1ncc(-c2ccccc2)nc1C(=O)NCc1ccccc1 [compound 2]	< 5.00

The reported pIC50 value, Chk1 (Homo sapiens), for CN(C)c1ccc(-c2cnc(N)c(C(N)=O)n2)cc1 [compound 32] reads 5.00 to 6.00

Test item CNC(=O)c1nc(-c2noc(-c3ccncc3)n2)cnc1N [compound 73] ; Chk1 (Homo sapiens); reported pIC50 was < 5.00

Value sought: pIC50, system Chk1 (Homo sapiens), item CNc1ncc(-c2ccccc2)nc1C(N)=O [compound 38] . Result: < 5.00

pIC50 of CCCNC(=O)c1nc(-c2ccccc2)cnc1NCCC [compound 15] , assay on Chk1 (Homo sapiens), is < 5.00

Tested on Chk1 (Homo sapiens): CNC(=O)c1nc(-c2cccc(C(C)=O)c2)cnc1N [compound 65] . Observed pIC50: 5.00 to 6.00

Test item CNC(=O)c1nc(-c2ccc(OC)cc2)cnc1N [compound 54] ; Chk1 (Homo sapiens); reported pIC50 was 5.00 to 6.00

Lab note: compound Nc1ncc(-c2ccccc2)nc1C(=O)N1CCCC1 [compound 11] tested on Chk1 (Homo sapiens); recorded pIC50 was < 5.00

The compound CNC(=O)c1nc(-c2cccc(-c3ccccc3)c2)cnc1N [compound 55] , tested on Chk1 (Homo sapiens), showed pIC50 of 6.00 to 7.30
